TARGET ENTITY: T1, ENAH EVH1 domain (monomeric, wild type) (human, UniProt Q03173 1-111 (mouse entry))
T1 construct: ENAH residue numbers in the text count from the Met at position 25 of this entry; also called ENAH EVH1 WT; Mena EVH1 WT
T1 sequence (Q03173 other isoform, or with tags, fused parts or gaps limits assumed): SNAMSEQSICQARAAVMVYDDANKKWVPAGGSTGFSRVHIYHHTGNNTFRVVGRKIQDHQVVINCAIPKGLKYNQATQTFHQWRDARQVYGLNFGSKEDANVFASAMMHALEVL
RUN DESCRIPTION: BLI, steady state; SUMO-peptide immobilised, EVH1 monomer in solution

# BINDER, UNIT, Kd
measured = [
    ("LPP Minimal peptide (biotinylated (BAP tag), Engineered variant, tested as a SUMO fusion) peptide: MAGGLNDIFEAQKIEWHEDTGGSSHHHHHHGSGSGSDSEVNQEAKPEVKPEVKPETHINLKVSDGSSEIFFKIKKTTPLRRLMEAFAKRQGKEMDSLTFLYDGIEIQADQTPEDLDMEDNDIIEAHREQIGGSGSGGDFLPPPPPPLGGGSGSGGGSGSFPPPPPL", "µM", 15.8),
    ("LPP 36mer peptide (biotinylated (BAP tag), Tested as a BAP-6xHis-SUMO-peptide fusion in BLI and ITC) peptide: MAGGLNDIFEAQKIEWHEDTGGSSHHHHHHGSGSGSDSEVNQEAKPEVKPEVKPETHINLKVSDGSSEIFFKIKKTTPLRRLMEAFAKRQGKEMDSLTFLYDGIEIQADQTPEDLDMEDNDIIEAHREQIGGSGSGKQPGGEGDFLPPPPPPLDDSSALPSISGNFPPPPPL", "µM", 4.03),
    ("LPP Duplicated peptide (biotinylated (BAP tag), Engineered variant, tested as a SUMO fusion) peptide: MAGGLNDIFEAQKIEWHEDTGGSSHHHHHHGSGSGSDSEVNQEAKPEVKPEVKPETHINLKVSDGSSEIFFKIKKTTPLRRLMEAFAKRQGKEMDSLTFLYDGIEIQADQTPEDLDMEDNDIIEAHREQIGGSGSGKQPGGEGDFLPPPPPPLDDSSALPSISGNDDSSALPSISGNFPPPPPL", "µM", 6.66),
]
